All values here come from patent US9085576B2.

# Subject of test: Cathepsin D (Cat D) (Homo sapiens (Human), UniProt P07339)
# Sequence (P07339 65-412, species assumed): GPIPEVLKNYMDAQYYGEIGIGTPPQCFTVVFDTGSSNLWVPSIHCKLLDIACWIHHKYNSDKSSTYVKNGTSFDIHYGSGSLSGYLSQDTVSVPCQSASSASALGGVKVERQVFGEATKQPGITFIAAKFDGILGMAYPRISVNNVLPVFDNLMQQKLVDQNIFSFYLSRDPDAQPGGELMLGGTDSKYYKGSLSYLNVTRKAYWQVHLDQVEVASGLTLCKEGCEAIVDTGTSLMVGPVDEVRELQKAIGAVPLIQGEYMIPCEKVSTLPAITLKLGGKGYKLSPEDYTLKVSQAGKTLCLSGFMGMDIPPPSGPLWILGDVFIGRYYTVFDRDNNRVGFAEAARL
# Experiment description: In vitro enzymatic Cathepsin D (Cat D) FRET assay
# Assay type: biochemical
# Condition notes: read-out: CatD IC50

| Molecule | IC50 |
| --- | --- |
| CC#CCOc1cnc(C(=O)Nc2ccc(Cl)c([C@]3(C(F)F)N=C(N)O[C@H]4C[C@H]43)c2)cn1 (racemic) [Example 210] | 569 µM |
| NC1=N[C@@](c2cc(NC(=O)c3ccc(Cl)cn3)ccc2F)(C(F)F)[C@H]2C[C@H]2O1 | 684 µM |
| NC1=N[C@@](c2cc(Nc3ncnc4cc(C(F)(F)F)cnc34)ccc2F)(C(F)F)[C@H]2C[C@H]2O1 | 79.4 µM |
